# Method summary: Artificially induced deciduoma in ovariectomized mice
# Type: in vivo, mouse
# Assay setup: female, FVB/NJ, mouse, serum, subcutaneous, 2 mg/100 g of body weight; measured on day +5; DHEA-treated group; read-out: Serum DHEA levels
Metric: concentration at 5 day (after oil injection on day 0) (ng/mL)
# output: bare number, implied unit ng/mL

INPUT: What does the data say about its concentration at 5 day (after oil injection on day 0)? Entry: C[C@]12CC[C@H](O)CC1=CC[C@@H]1[C@@H]2CC[C@]2(C)C(=O)CC[C@@H]12 [DHEA, dehydroepiandrosterone]
OUTPUT: 32.6
